Overview of recorded pIC50 for various compounds
biological target: CRBN/DDB1 (Homo sapiens (Human)); experiment: HTRF binding assay to CRBN/DDB1; conditions: read-out: CRBN HTRF IC50
Sequence (Q96SW2 whole entry): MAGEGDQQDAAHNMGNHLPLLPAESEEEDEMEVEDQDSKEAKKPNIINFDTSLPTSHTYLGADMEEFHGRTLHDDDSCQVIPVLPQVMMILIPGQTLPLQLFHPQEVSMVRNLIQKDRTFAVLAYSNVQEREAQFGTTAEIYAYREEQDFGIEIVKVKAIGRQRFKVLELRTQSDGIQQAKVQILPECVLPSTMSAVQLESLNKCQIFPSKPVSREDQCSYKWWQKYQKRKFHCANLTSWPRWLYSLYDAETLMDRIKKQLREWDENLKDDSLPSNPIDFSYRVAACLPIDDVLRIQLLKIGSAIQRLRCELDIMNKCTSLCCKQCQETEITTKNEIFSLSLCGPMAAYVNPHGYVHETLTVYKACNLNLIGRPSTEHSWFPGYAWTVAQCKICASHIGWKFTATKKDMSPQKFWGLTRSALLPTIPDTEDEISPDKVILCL
Sequence (Q16531 whole entry partner): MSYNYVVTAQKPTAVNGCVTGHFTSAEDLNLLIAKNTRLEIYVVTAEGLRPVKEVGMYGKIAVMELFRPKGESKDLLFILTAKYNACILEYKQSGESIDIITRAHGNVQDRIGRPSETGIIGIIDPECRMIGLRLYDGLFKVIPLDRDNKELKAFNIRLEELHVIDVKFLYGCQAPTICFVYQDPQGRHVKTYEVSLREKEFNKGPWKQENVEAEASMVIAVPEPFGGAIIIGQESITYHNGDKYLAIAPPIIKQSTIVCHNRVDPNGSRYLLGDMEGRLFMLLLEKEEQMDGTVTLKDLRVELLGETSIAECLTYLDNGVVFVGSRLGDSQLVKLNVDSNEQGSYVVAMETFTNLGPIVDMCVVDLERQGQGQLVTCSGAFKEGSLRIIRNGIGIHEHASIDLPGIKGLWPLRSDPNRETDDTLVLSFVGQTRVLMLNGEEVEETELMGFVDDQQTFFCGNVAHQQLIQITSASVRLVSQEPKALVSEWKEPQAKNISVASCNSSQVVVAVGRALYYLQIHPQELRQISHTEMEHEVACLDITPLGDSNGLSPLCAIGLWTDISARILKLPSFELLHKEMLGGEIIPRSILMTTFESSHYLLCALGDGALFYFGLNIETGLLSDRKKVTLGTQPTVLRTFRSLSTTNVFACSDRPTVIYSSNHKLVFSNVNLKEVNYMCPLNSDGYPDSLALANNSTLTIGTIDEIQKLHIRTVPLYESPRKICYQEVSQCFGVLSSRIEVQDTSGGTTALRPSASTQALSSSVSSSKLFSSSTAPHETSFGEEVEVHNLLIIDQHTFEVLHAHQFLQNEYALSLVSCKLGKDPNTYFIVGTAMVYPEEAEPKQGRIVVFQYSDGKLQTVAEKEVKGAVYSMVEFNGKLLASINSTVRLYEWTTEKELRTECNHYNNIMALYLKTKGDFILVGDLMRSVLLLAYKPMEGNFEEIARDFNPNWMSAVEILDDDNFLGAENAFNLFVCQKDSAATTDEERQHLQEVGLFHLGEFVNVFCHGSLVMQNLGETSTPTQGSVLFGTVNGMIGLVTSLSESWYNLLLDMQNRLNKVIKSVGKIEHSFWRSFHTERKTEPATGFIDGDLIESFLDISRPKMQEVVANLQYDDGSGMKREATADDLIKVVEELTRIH
pIC50: −log10 of the molar value.
reported_endpoint: pIC50

{"compound": "O=C1CC[C@@H](N2Cc3cc4c(cc3C2=O)CN(C(=O)CN2CCC3(CC2)CCN(c2ccc([C@H]5c6ccc(O)cc6OC[C@H]5c5ccccc5)cc2)CC3)C4)C(=O)N1 (single isomer, unassigned)", "test_system": "CRBN/DDB1 (Homo sapiens (Human))", "reported_endpoint": "pIC50", "result": "6.30 to 7.30"}
{"compound": "O=C1CCC(N2Cc3c(ccc4c3OC[C@@H]3CN(CC5CCN(c6ncc([C@H]7c8ccc(O)cc8OC[C@H]7c7ccccc7)cn6)CC5)CCN43)C2=O)C(=O)N1 (single isomer, unassigned)", "test_system": "CRBN/DDB1 (Homo sapiens (Human))", "reported_endpoint": "pIC50", "result": "6.30 to 7.30"}
{"compound": "O=C1CCC(NC(=O)c2ccc(N3CCC(CN4CCN(c5ccc([C@H]6c7ccc(O)cc7OC[C@H]6c6ccccc6)cc5)CC4)CC3)cn2)C(=O)N1 (stereo partly drawn) [Compound A129]", "test_system": "CRBN/DDB1 (Homo sapiens (Human))", "reported_endpoint": "pIC50", "result": "< 5.30"}
